# System Under Test: ADAMTS4 (Homo sapiens (Human))
# Sequence (O75173 213-685): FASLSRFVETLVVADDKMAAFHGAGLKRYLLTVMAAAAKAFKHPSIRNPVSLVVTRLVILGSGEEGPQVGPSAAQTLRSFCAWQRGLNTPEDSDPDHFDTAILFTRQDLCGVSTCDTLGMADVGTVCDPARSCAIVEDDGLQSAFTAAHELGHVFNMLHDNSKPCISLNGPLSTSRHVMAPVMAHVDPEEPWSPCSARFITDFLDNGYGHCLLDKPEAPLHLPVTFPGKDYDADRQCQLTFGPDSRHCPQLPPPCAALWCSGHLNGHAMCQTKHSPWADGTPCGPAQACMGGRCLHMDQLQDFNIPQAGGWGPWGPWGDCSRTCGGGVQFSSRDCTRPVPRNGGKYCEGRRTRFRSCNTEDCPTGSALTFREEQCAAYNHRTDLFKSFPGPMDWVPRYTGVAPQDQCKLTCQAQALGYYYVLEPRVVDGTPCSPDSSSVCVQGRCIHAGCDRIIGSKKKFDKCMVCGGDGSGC
# Method Notes: Selectivity assay for ADAMTS-7 modulators: ADAMTS4 (FRET substrate)
# Format: biochemical
# Reported Conditions: ADAMTS4 (R&D 4307-AD) 50 nM, substrate Dabcyl-EEVKAKVQPY-Glu(Edans)-NH2 1 μM, 120 min, 32° C.
Reported IC50 is given for each of the following compounds.
Express the reported value numerically, then name its unit.

Here are 3 compounds together with their reported answers.
Cn1ccnc1C1(CNC(=O)c2cc(F)c(F)cc2-c2ccc(C(F)(F)F)cc2)NC(=O)NC1=O (single isomer, unassigned; ent-4)
3.95 µM
CCn1nccc1C1(CNC(=O)c2ccccc2-c2ccc(C(F)(F)F)cc2)NC(=O)NC1=O (racemic) [Example 4]
19 µM
O=C1NC(=O)[C@](CNC(=O)c2ccncc2-c2ccc(C(F)(F)F)cc2)(C2CC2)N1
36 µM

Reported IC50 of Cc1ncsc1C1(CNC(=O)c2ccccc2-c2ccc(C(F)(F)F)cc2)NC(=O)NC1=O (stereo not shown) [Example 27] : 9.1 µM
